Data provenance: PubChem BioAssay (NCI)

- Tested on: HS 578T breast
- Assay protocol: NCI tumour cell line growth inhibition, 48 h
Here the recorded TGI is given for each entry.

Consider the following illustrative entries.
[
  {
    "Compound": "CCN(CC)CCC(=O)O[C@H]1CC[C@H](CC(C)[C@H]2CC(=O)C(C)C=C(C)[C@H](OC(=O)CCN(CC)CC)C(OC)C(=O)[C@@H](C)CC(C)/C=C/C=C/C=C(C)C(OC)CC3CC[C@H](C)[C@](O)(O3)C(=O)C(=O)N3CCCCC3C(=O)O2)CC1OC (stereo partly drawn)",
    "Observable": "TGI",
    "Measured": "2.28 µM"
  },
  {
    "Compound": "COC(=O)C1=NN2c3ccccc3CN([C@@H](C)c3ccccc3)C(=O)[C@H]2[C@@H]1C",
    "Observable": "TGI",
    "Measured": "> 100 µM"
  }
]

stdin: Data request, read-out TGI, for "CCN1C(=O)CS/C1=N\NC(=O)CSc1nc2ccccc2c(=O)n1CC"
stdout: > 100 µM
